The measurements presented in this section are drawn from patent US20200231684A1.

Kindly state pKd for each of the entries shown.
Target: T1, recombinant human IL-36R (ECD) (human, UniProt Q9HB29 20-332)
T1 construct: range 20-332; also called IL-1RL2; IL-1Rrp2
T1 sequence (looked up): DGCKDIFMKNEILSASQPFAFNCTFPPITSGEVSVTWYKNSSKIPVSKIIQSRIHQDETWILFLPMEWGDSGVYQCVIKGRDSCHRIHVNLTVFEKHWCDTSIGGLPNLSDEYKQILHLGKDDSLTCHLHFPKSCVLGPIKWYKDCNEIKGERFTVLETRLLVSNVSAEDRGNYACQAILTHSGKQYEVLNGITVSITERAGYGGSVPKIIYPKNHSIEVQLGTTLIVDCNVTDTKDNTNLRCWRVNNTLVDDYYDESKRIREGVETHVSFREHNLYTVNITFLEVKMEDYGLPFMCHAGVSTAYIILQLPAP
Test: SPR (ProteOn), single IL-36R surface coat concentration
pKd: −log10 of the molar value.

[ask] Return reported pKd. Input binder: antibody 76E10 (antibody, V domains shown, Mouse monoclonal from hybridoma; also called 76E10E8) VH: QVQLKESGPVLVAPSQSLSITCTVSGFSLTNYGVHWVRQPPGKGLEWLGVIWPVGSTNYNSALMSRLSIHKDNSKSQVFLRMNSLQTDDTAIYYCAKMDWDDFFDYWGQGTTLTVSS VL: DIVMTQSQKFMSATVGGRVNITCKASQNVGRAVAWYQQKPGQSPKLLTHSASNRYTGVPDRFTGSGSGTDFTLTITNMQSEDLADYFCQQYSSYPLTFGAGTKLDLK
[reply] > 10.00

[ask] Return reported pKd. Input binder: antibody 73F6 (antibody, V domains shown, Mouse monoclonal from hybridoma; also called 73F6F8; Mouse 73F6) VH: QVQLKESGPGLVAPSQSLSITCTVSGFSLTNYAVHWVRQFPGKGLEWLGVIWSDGSTDYNAPFKSRLSINKDNSKSQVFFKMNSLQTDDTAIYYCARKGGYSGSWFAYWGQGTLVTVSA VL: DIVMTQSQKFLSTSVGVRVSVTCKASQDVGTNVLWYQQKIGQSPKALIYSASYRHSGVPDRFTGSGSGTDFTLIITNVQSEDLAEYFCQQYSRYPLTFGPGTKLELK
[reply] > 10.00
